Below, each entry is listed alongside its reported PERCENT MAX. BOUND.
biological target: IGF-I receptor (Rattus norvegicus, UniProt P24062); construct: Brain tissue containing the cerebral cortex and cerebellum was dissected from adult Sprague-Dawley rats; from tissue; host or cells: adult Sprague-Dawley rat brain (cerebral cortex and cerebellum), homogenate pellet; assay: 125I-[Threonine59]IGF-I displacement (IGF-I receptor competition) assay, rat brain homogenate; type: binding; settings: peptide 100 μM
Sequence (P24062 31-737 limits assumed): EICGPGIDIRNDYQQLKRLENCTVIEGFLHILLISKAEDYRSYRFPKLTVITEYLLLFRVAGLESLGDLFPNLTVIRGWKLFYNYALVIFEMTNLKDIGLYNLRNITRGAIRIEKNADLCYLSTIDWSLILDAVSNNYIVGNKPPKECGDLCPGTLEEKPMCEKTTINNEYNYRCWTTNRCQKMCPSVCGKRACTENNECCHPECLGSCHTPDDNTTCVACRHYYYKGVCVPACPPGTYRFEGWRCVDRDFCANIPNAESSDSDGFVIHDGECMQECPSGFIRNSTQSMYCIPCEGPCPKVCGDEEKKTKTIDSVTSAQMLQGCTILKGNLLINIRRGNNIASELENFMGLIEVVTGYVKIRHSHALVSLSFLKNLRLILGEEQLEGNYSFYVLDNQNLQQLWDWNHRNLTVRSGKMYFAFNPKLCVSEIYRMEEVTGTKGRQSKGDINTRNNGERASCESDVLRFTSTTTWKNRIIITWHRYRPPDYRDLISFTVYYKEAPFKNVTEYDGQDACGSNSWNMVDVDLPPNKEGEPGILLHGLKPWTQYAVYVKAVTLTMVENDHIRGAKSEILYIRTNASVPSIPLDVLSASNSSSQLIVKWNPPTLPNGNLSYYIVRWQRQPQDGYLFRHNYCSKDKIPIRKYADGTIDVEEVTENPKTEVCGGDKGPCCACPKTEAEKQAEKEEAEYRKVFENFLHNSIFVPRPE
Sequence (P24062 742-1370 partner limits assumed): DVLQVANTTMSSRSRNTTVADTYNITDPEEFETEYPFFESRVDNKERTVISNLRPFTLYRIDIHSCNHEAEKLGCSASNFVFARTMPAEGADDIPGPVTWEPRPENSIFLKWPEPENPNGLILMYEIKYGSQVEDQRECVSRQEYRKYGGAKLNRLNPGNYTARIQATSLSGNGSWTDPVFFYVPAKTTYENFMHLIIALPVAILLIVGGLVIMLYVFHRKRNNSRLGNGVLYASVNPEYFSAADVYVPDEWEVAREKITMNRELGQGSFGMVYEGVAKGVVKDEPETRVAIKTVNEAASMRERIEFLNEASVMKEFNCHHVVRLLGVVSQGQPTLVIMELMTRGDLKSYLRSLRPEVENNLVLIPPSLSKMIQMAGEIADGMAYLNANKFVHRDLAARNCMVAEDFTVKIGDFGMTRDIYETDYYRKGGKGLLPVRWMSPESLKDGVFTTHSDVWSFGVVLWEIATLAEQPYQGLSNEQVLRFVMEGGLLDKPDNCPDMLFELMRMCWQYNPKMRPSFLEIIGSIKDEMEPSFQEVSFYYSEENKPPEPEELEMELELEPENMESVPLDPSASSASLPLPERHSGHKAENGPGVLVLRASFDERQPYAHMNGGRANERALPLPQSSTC
RECORDED_ENDPOINT: PERCENT MAX. BOUND

> print(dat)
                                  substance  result
1          TPAKS E (TPAKSE) [IGF-II(62-67)]     83%
2  GYGSS SRRAP QT (GYGSSSRRAPQT) [IGF-I(30-41)]     94%
3     APLKP AKSA (APLKPAKSA) [IGF-I(62-70)]     83%
4  ALLET YCATP AKSE (ALLETYCATPAKSE) [IGF-II(54-67)]     94%
